Species: Homo sapiens
Measurement Description: Hepatic clearance in human
Assay Conditions: in vivo
Could you please mark YES for values of CL below 1 mL/min/kg and NO for values at or above it?

Here's what some known entries look like.
Compound	Qualitative Label
CCOc1ccccc1OC(c1ccccc1)C1CNCCO1 (centres undefined)	YES
COc1ccc2[nH]c([S+]([O-])Cc3ncc(C)c(OC)c3C)nc2c1 (centres undefined)	NO

Q: # strict comparison: is reported CL < 1 mL/min/kg? input = CCS(=O)(=O)CCn1c([N+](=O)[O-])cnc1C
Result: YES

Q: # strict comparison: is reported CL < 1 mL/min/kg? input = COc1ccccc1OCCNCC(O)COc1cccc2[nH]c3ccccc3c12 (centres undefined)
Result: NO

Q: # strict comparison: is reported CL < 1 mL/min/kg? input = Nc1ccc(S(=O)(=O)c2ccc(N)cc2)cc1
Result: YES

Q: # strict comparison: is reported CL < 1 mL/min/kg? input = CC(=O)N[C@H]1[C@H]([C@H](O)[C@H](O)CO)OC(C(=O)O)=C[C@@H]1N=C(N)N
Result: YES

Q: # strict comparison: is reported CL < 1 mL/min/kg? input = CN(Cc1cnc2nc(N)nc(N)c2n1)c1ccc(C(=O)N[C@@H](CCC(=O)O)C(=O)O)cc1 [METHOTREXATE]
Result: YES

Q: # strict comparison: is reported CL < 1 mL/min/kg? input = C[C@H]([C@](O)(Cn1cncn1)c1ccc(F)cc1F)S(C)(=O)=O
Result: YES

Q: # strict comparison: is reported CL < 1 mL/min/kg? input = CCOc1cc(CC(=O)N[C@@H](CC(C)C)c2ccccc2N2CCCCC2)ccc1C(=O)O [REPAGLINIDE]
Result: NO

====

Species: Homo sapiens
Measurement Description: Hepatic clearance in human
Assay Conditions: in vivo
Result Type: CL (mL/min/kg)
Hi! Could you send only the number? It should be in mL/min/kg, unit omitted.

Reference set (3 entries):
Compound	Units Text	CL
CCO[C@@H](Cc1ccc(OCCc2ccc(OS(C)(=O)=O)cc2)cc1)C(=O)O [TESAGLITAZAR]	mL/min/kg	0.032
N=C(N)c1ccc(CNC(=O)[C@@H]2CCN2C(=O)[C@H](NCC(=O)O)C2CCCCC2)cc1	mL/min/kg	0.3
CCC1=C(C)CN(C(=O)NCCc2ccc(S(=O)(=O)NC(=O)N[C@H]3CC[C@H](C)CC3)cc2)C1=O [GLIMEPIRIDE]	mL/min/kg	0.5

Now look at this one.
Q: Which CL is reported for this compound? COCCc1ccc(OCC(O)CNC(C)C)cc1 (centres undefined) [METOPROLOL]
Result: 12.4

====

Measurement Description: clinical
Assay Conditions: human, in vivo
Below, each of the compounds is paired with its reported log10 CL renal value.
log10 CL renal, mL/min/kg

Compound	log10 CL renal
O=C(N[C@H](CO)[C@H](O)c1ccc([N+](=O)[O-])cc1)C(Cl)Cl	-0.70
CN(C)c1ccc(O)c2c1C[C@H]1C[C@H]3[C@H](N(C)C)C(O)=C(C(N)=O)C(=O)[C@@]3(O)C(O)=C1C2=O	-1.00
C=CCN1CCCC1CNC(=O)c1cc2[nH]nnc2cc1OC (centres undefined) [ALIZAPRIDE]	0.72
Nc1ccc(S(=O)(=O)Nc2ncccn2)cc1	-0.52
Cc1c(OCC(F)(F)F)ccnc1C[S+]([O-])c1nc2ccccc2[nH]1 (centres undefined)	-1.36

Q: Which log10 CL renal is reported for this compound? CCOC(=O)Nc1ccc(NCc2ccc(F)cc2)nc1N
Result: -0.52

Q: Which log10 CL renal is reported for this compound? CCOC(=O)C1(c2ccccc2)CCC=CC1N(C)C (centres undefined)
Result: -0.52

Q: Which log10 CL renal is reported for this compound? Cc1cc(=O)n(-c2ccccc2)n1C [ANTIPYRINE]
Result: -1.61

Q: Which log10 CL renal is reported for this compound? COc1cccc(C2(O)CCCCC2CN(C)C)c1 (centres undefined)
Result: 0.00

Q: Which log10 CL renal is reported for this compound? OC(CCN1CCCC1)(c1ccccc1)C1CCCCC1 (centres undefined)
Result: -1.37

====

Below, each of the molecules is paired with its reported clearance value.
Measurement Description: clinical
Assay Conditions: human, in vivo
Hi! Could you send only the number? It should be in mL/min/kg, unit omitted.

Reference set (4 entries):
Molecule	Units Text	clearance
O=C1NC(=O)C(c2ccccc2)(c2ccccc2)N1	mL/min/kg	0.37
CNC[C@H](O)CC12CCC(c3ccccc31)c1ccccc12	mL/min/kg	12.3
Nc1nnc(-c2cccc(Cl)c2Cl)c(N)n1	mL/min/kg	0.6
CCCCCN(CCCOC)C(=O)C(CCC(=O)O)NC(=O)c1ccc(Cl)c(Cl)c1 (stereo not given) [LOXIGLUMIDE]	mL/min/kg	1

Now look at this one.
Q: Which clearance is reported for this molecule? O=C(O)c1cc(/N=N/c2ccc(S(=O)(=O)Nc3ccccn3)cc2)ccc1O
Result: 0.24

====

System: Homo sapiens
Measurement Description: Oral bioavailability in human
Assay Conditions: in vivo
Could you please mark True for values of F_fraction below 0.5 and False for values at or above it?

Here's what some known entries look like.
Compound	Target Desc	Qualitative Label
CCN1CCCC1CNC(=O)c1cc(S(N)(=O)=O)ccc1OC (stereo unspecified) [SULPIRIDE]	Homo sapiens	True
Nc1nc2c(ncn2CCC(CO)CO)c(=O)[nH]1 [PENCICLOVIR]	Homo sapiens	True
CN1CCC[C@H]1c1cccnc1 [NICOTINE]	Homo sapiens	True
CCCN(CCC)S(=O)(=O)c1ccc(C(=O)O)cc1 [PROBENECID]	Homo sapiens	False
Nc1ccc(S(=O)(=O)Nc2ncccn2)cc1 [SULFADIAZINE]	Homo sapiens	False
O=C1C(CC[S+]([O-])c2ccccc2)C(=O)N(c2ccccc2)N1c1ccccc1 (stereo unspecified) [SULFINPYRAZONE]	Homo sapiens	False
Cc1ncc2n1-c1ccc(Cl)cc1C(c1ccccc1F)=NC2 [MIDAZOLAM]	Homo sapiens	True
O=C(NCCNCC(O)COc1ccc(O)cc1)N1CCOCC1 (stereo unspecified) [XAMOTEROL]	Homo sapiens	True

Q: # strict comparison: is reported F_fraction < 0.5? input = NCC1(CC(=O)O)CCCCC1 [GABAPENTIN]
Result: False

Q: # strict comparison: is reported F_fraction < 0.5? input = CCc1cccc2cc(C(O)CNC(C)(C)C)oc12 (stereo unspecified) [BUFURALOL]
Result: True

Q: # strict comparison: is reported F_fraction < 0.5? input = COc1ccc2[nH]c([S+]([O-])Cc3ncc(C)c(OC)c3C)nc2c1 (stereo unspecified) [OMEPRAZOLE]
Result: False

Q: # strict comparison: is reported F_fraction < 0.5? input = CC[C@H]1OC(=O)[C@H](C)[C@@H](O[C@H]2C[C@@](C)(OC)[C@@H](O)[C@H](C)O2)[C@H](C)[C@@H](O[C@@H]2O[C@H](C)C[C@H](N(C)C)[C@H]2O)[C@](C)(O)C[C@@H](C)C(=O)[C@H](C)[C@@H](O)[C@]1(C)O [ERYTHROMYCIN]
Result: True

Q: # strict comparison: is reported F_fraction < 0.5? input = O=C(c1ccccc1)c1ccc2n1CCC2C(=O)O (stereo unspecified) [KETOROLAC]
Result: False

Q: # strict comparison: is reported F_fraction < 0.5? input = Cc1c(OCC(F)(F)F)ccnc1C[S+]([O-])c1nc2ccccc2[nH]1 (stereo unspecified) [LANSOPRAZOLE]
Result: False

Q: # strict comparison: is reported F_fraction < 0.5? input = COc1cccc2c1C(=O)c1c(O)c3c(c(O)c1C2=O)C[C@@](O)(C(=O)CO)C[C@@H]3O[C@H]1C[C@H](N)[C@H](O)[C@H](C)O1 [DOXORUBICIN]
Result: True

Q: # strict comparison: is reported F_fraction < 0.5? input = CN(C)Cc1nnc2n1-c1ccc(Cl)cc1C(c1ccccc1)=NC2 [ADINAZOLAM]
Result: True

Q: # strict comparison: is reported F_fraction < 0.5? input = CC(C)c1nc(N(C)S(C)(=O)=O)nc(-c2ccc(F)cc2)c1/C=C/[C@@H](O)C[C@@H](O)CC(=O)O [ROSUVASTATIN]
Result: True

Q: # strict comparison: is reported F_fraction < 0.5? input = CC(C)Cc1ccc(C(C)C(=O)O)cc1 (stereo unspecified) [IBUPROFEN]
Result: False

Q: # strict comparison: is reported F_fraction < 0.5? input = Cc1nc2n(c(=O)c1CCN1CCC(c3noc4cc(F)ccc34)CC1)CCCC2 [RISPERIDONE]
Result: False

Q: # strict comparison: is reported F_fraction < 0.5? input = Nc1nnc(-c2cccc(Cl)c2Cl)c(N)n1 [LAMOTRIGINE]
Result: False

Q: # strict comparison: is reported F_fraction < 0.5? input = CCOC(=O)C1=C(C)NC(C)=C(C(=O)OC)C1c1cccc(Cl)c1Cl (stereo unspecified) [FELODIPINE]
Result: True

Q: # strict comparison: is reported F_fraction < 0.5? input = C=CC1=C(C(=O)O)N2C(=O)[C@@H](NC(=O)/C(=N\OCC(=O)O)c3csc(N)n3)[C@H]2SC1 [CEFIXIME]
Result: True

Q: # strict comparison: is reported F_fraction < 0.5? input = N[C@@H](C(=O)N[C@@H]1C(=O)N2C(C(=O)O)=C(CSc3c[nH]nn3)CS[C@H]12)c1ccc(O)cc1 [CEFATRIZINE]
Result: False

Q: # strict comparison: is reported F_fraction < 0.5? input = COc1ccc(C(=O)Nc2ccccc2CCC2CCCCN2C)cc1 (stereo unspecified) [ENCAINIDE]
Result: True

Q: # strict comparison: is reported F_fraction < 0.5? input = CNCCCN1c2ccccc2CCc2ccccc21 [DESIPRAMINE]
Result: True

Q: # strict comparison: is reported F_fraction < 0.5? input = Cc1ccc(-c2nc3ccc(C)cn3c2CC(=O)N(C)C)cc1 [ZOLPIDEM]
Result: False

Q: # strict comparison: is reported F_fraction < 0.5? input = CNC(=O)Oc1ccc2c(c1)[C@]1(C)CCN(C)[C@@H]1N2C [PHYSOSTIGMINE]
Result: True

Q: # strict comparison: is reported F_fraction < 0.5? input = Clc1ccc2nsnc2c1NC1=NCCN1 [TIZANIDINE]
Result: True

Q: # strict comparison: is reported F_fraction < 0.5? input = C[C@H]1COc2c(N3CCN(C)CC3)c(F)cc3c(=O)c(C(=O)O)cn1c23.C[C@H]1COc2c(N3CCN(C)CC3)c(F)cc3c(=O)c(C(=O)O)cn1c23.O [LEVOFLOXACIN]
Result: False

Q: # strict comparison: is reported F_fraction < 0.5? input = CNS(=O)(=O)Cc1ccc2[nH]cc(CCN(C)C)c2c1
Result: True
